B1: CSNK1G1 (parent)
chain: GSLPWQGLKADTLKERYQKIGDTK

Variants of: B1
PROCEDURE SUMMARY: protein stability index of a GFP-peptide fusion (GPS, HEK-293T) (PSI 1-6); higher = more stable;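 also: lentivirally expressed fusions sorted by FACS into six bins by GFP to DsRed ratio, PSI derived from sequencing read proportions per bin multiplied by bin number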
PARTICULARS: c terminus: a fixed tail appended
Documented protein stability index across a set of variants
Keep it simple and answer with nothing but the number.

Recorded protein stability index for GSLPWQGLKADTLKERYQKIGDVK , please? 4.01

Recorded protein stability index for GSLPWQGLKASTLKERYQKIGDTK , please? 4.11

Recorded protein stability index for GSLAWQGLKADTLKERYQKIGDTK , please? 4.02

Recorded protein stability index for GSLPWQGLKADTLKERYQKIGDTQ , please? 4.07
